Target: G-protein coupled receptor 52 (Mus musculus)
Test: In vivo agonist activity at GPR52 in C57BL/6 mouse assessed as inhibition of basal locomotor activity at 10 mg/kg, po measured for 60 mins starting at 15 mins post-drug challenge
Type: functional, organism-based
Conditions: time 75.0 min
EXPERIMENTAL_ENDPOINT: inhibition (%)

O=C(NCCO)c1cccc2c1CCN2c1cc(Cc2cc(F)cc(Cl)c2)ccn1 : 79
C[C@@H](O)CNC(=O)c1cccc2c1CCN2c1cc(Cc2cc(F)c(F)c(F)c2)ccn1 : 68
O=C(NCCO)c1cccc2c1CCN2c1cc(Cc2cc(F)c(F)c(F)c2)ccn1 : 65

###

Assay: Ratio of drug level in brain to plasma in C57BL/6 mouse at 10 mg/kg, po measured after 60 mins by LC/MS/MS analysis
Type: ADME, organism-based
Conditions: brain and plasma, read-out: BPR
EXPERIMENTAL_ENDPOINT: Kp at 1 h

O=C(NCCO)c1c(F)ccc2c1CCN2c1cc(Cc2cccc(C(F)(F)F)c2)ccn1 : 1.67
NC(=O)c1cccc2c1CCN2c1cc(Cc2cc(F)cc(Cl)c2)ccn1 : 12.4
O=C(NC1CCN(CCO)CC1)c1cccc2c1CCN2c1cc(Cc2ccc3c(c2)CCO3)ccn1 : 0.16

[P] O=C(NC[C@@H](F)CO)c1cccc2c1CCN2c1cc(Cc2cc(F)c(F)c(F)c2)ccn1
[Q] CC(=O)c1cccc(Cc2ccnc(N3CCc4c(C(N)=O)cccc43)c2)c1
[R] O=C(NCCO)c1cccc2c1CCN2c1cc(Cc2cc(F)cc(Cl)c2)ccn1
Problem: Arrange the 3 molecules from largest to smallest Kp at 1 h. Present the labels in the sequence the task asks for.
Result: R, P, Q

[P] COc1ccc(Cc2ccnc(N3CCc4c(C(=O)NCCO)cccc43)c2)cc1F
[Q] COc1ccc(Cc2ccnc(N3CCc4c(C(N)=O)cccc43)c2)cc1F
Problem: // which entry has the larger Kp at 1 h value, P or Q ? Respond using the label that marks the chosen record.
Result: Q
(Q: 6.32, P: 0.87)

###

Target: G-protein coupled receptor 52 (Mus musculus) (UniProt P0C5J4)
Sequence (P0C5J4 whole entry): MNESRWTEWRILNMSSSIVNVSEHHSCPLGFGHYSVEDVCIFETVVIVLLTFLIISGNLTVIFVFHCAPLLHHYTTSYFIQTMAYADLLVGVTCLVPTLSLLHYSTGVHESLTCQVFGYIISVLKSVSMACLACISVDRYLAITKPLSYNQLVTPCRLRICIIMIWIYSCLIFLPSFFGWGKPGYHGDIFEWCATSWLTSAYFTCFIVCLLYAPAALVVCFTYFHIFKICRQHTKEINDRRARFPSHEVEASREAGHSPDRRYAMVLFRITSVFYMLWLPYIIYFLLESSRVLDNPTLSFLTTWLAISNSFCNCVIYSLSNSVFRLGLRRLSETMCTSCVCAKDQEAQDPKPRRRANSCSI
Test: In vivo agonist activity at GPR52 in C57BL/6 mouse assessed as inhibition of basal locomotor activity at 10 mg/kg, po measured for 60 mins starting at 15 mins post-drug challenge
Format: functional, organism-based
Settings: time 75.0 min
EXPERIMENTAL_ENDPOINT: inhibition (%)

COc1ccc(Cc2ccnc(N3CCc4c(C(N)=O)cccc43)c2)cc1F : 66
CC(=O)c1cccc(Cc2ccnc(N3CCc4c(C(N)=O)cccc43)c2)c1 : 72
COc1ccc(Cc2ccnc(N3CCc4c3ccc(F)c4C(=O)NC[C@@H](F)CO)c2)cc1F : 62
O=C(NC[C@@H](F)CO)c1cccc2c1CCN2c1cc(Cc2cc(F)c(F)c(F)c2)ccn1 : 70
O=C(NCCO)c1cccc2c1CCN2c1cc(Cc2cccc(C(F)(F)F)c2)ccn1 : 70

###

Molecular target: UniProtKB P0C5J4
Assay: In vivo agonist activity at GPR52 in C57BL/6 mouse assessed as inhibition of basal locomotor activity at 10 mg/kg, po measured for 60 mins starting at 15 mins post-drug challenge
Format: functional, organism-based
Settings: time 75.0 min
EXPERIMENTAL_ENDPOINT: inhibition (%)

NC(=O)c1cccc2c1CCN2c1cc(Cc2ccc(F)c(C(F)(F)F)c2)ccn1 : 61
COC[C@@H](O)CNC(=O)c1cccc2c1CCN2c1cc(Cc2cc(F)c(F)c(F)c2)ccn1 : 72
NC(=O)c1cccc2c1CCN2c1cc(Cc2ccc3occc3c2)ccn1 : 81
COc1ccc(Cc2ccnc(N3CCc4c(C(=O)NC[C@@H](F)CO)cccc43)c2)cc1F : 67
O=C(NCCO)c1c(F)ccc2c1CCN2c1cc(Cc2cc(F)c(F)c(F)c2)ccn1 : 68
